Assay: Single oral (PO) dose pharmacokinetics study in rats; plasma concentration of MDMA (and prodrug) by LC-MS/MS
Conditions: male, Sprague-Dawley, rat, plasma, po, 10 mg/kg, AUC0-last, MDMA dosed PO 10 mg/Kg, male SD rats, analyte MDMA, mean
reportedEndpoint: AUC(0-t) (ng·h/mL)
Give just the numeric value; ng·h/mL need not be written.

Lookup: // AUC(0-t) lookup, key: CNC(C)Cc1ccc2c(c1)OCO2 (stereo not shown) [MDMA, 3,4-Methylenedioxymethamphetamine]
Found: 1710

###

Assay: Single intravenous (IV) dose pharmacokinetics study in rats; plasma concentration of MDMA by LC-MS/MS
Conditions: male, Sprague-Dawley, rat, plasma, iv, 1 mg/kg
reportedEndpoint: Vd
Provide the measurement as a number trailed by its unit.

Lookup: Query: Vd; subject: CNC(C)Cc1ccc2c(c1)OCO2 (stereo not shown)
Found: 8.18 L/kg

Ref: patent US20240317724A1
